- assayed_system: Androgen receptor (Homo sapiens)
- method_description: qHTS assay to identify small molecule antagonists of the androgen receptor (AR) signaling pathway using the MDA cell line in the presence of 0.5 nM R1881 (AID 1259243); also: nearly all actives have a fitted effect of over 50% in size; also: potency is read from the fitted curve at half-maximal effect
- measurement_setup: MDA-kb2 MMTV-luciferase, R1881 0.5 nM, 16 h; series mostly up to 92.4 µM
Results filed as inconclusive are left out. Activity calls are given as the source filed them. Calls follow the shape of the dose curve; as a rule, active = well fitted inhibition curve with a large enough effect in the repeat runs; inconclusive = weak or mixed curves; inactive = no such curve, though single readings can be large or run the other way.
observable: Potency

Here's what some known entries look like.
CC(C)(c1ccc(O)c(-c2ccccc2)c1)c1ccc(O)c(-c2ccccc2)c1 = 30.6 µM (active)
[Cl][Sn]([c]1ccccc1)([c]1ccccc1)[c]1ccccc1 = 0.82 µM (active)
C[C@@H]1O[C@@H](O[C@H]2C[C@@H](O)[C@]3(CO)[C@H]4[C@H](O)C[C@]5(C)[C@@H](C6=CC(=O)OC6)CC[C@]5(O)[C@@H]4CC[C@]3(O)C2)[C@H](O)[C@H](O)[C@H]1O = inactive
COP(N)(=S)OC = inactive

Looking for the measured Potency of BrCC(Br)c1ccccc1 (stereo unspecified) , can you help?
inactive

Next compound: C=CC(=O)OCC(COC(=O)C=C)(COC(=O)C=C)COC(=O)C=C
4.33 µM (active)

====

- method_description: qHTS assay to identify small molecule antagonists of the estrogen receptor alpha (ER-alpha) signaling pathway using the BG1 cell line in the presence of 0.1 nM 17-beta-estradiol - cell viability counter screen (AID 1259241); also: nearly all actives have a fitted effect of over 40% in size
- measurement_setup: VM7Luc4E2 (BG1) viability, CellTiter-Fluor protease, 22 h, 0.1 nM estradiol agonist added; series mostly up to 92.4 µM
Results filed as inconclusive are left out. Calls of active or inactive are those of the source. Calls follow the shape of the dose curve; as a rule, active = well fitted cell-killing curve with a large enough effect in the repeat runs; inconclusive = weak or mixed curves, or effect the other way; inactive = flat fitted curve, though single readings scatter.
# valid calls are True for active, False for inactive; nothing else

CCC(C)c1cc([N+](=O)[O-])cc([N+](=O)[O-])c1OC(=O)C=C(C)C (stereo not given) = True
N#CNC#N = False
SCc1ccco1 = False
ClCCN1CCOCC1 = False
c1ccc(Nc2ccc3ccccc3c2)cc1 = False

Hi, do you know how Cc1cc(Cl)ccc1O[C@H](C)C(=O)O came out in this test?
False

Now consider C=COCCCl and answer again.
False

What do we get for COc1cc(N)c(Cl)cc1C(=O)NC1CN2CCC1CC2 (stereo not given) ?
False

Proceed to O=C/C(Cl)=C(/Cl)C(=O)O
False

Try this compound next: CCOP(=O)(NC(C)C)Oc1ccc(SC)c(C)c1 (stereo not given)
False

Next compound up: C=CCOC(N)=O
False

====

- assayed_system: Acetylcholinesterase (Homo sapiens) (UniProt P22303)
- Sequence (P22303 whole entry, looked up): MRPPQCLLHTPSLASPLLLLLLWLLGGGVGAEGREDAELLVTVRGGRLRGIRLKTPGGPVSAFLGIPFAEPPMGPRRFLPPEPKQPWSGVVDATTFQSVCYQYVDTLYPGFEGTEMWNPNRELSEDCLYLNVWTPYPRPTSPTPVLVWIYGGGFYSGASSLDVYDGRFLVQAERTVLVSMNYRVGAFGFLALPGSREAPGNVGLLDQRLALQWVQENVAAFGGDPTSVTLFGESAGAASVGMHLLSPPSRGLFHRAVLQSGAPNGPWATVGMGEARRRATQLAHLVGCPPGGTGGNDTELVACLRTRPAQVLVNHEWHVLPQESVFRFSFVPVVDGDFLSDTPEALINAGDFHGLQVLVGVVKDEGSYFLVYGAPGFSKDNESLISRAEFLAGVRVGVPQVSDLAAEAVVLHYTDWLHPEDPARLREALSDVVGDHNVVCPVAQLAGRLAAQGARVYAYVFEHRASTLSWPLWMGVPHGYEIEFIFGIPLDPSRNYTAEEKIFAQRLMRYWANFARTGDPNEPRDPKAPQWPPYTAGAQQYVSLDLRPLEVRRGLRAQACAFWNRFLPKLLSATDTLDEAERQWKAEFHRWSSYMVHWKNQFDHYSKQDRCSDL
- method_description: Acetylcholinesterase (AChE) small molecule antagonists: colormetric cell-based qHTS assay (AID 1347395); also: nearly all actives have a fitted effect of over 30% in size
- measurement_setup: SH-SY5Y cells AChE activity, colorimetric (Ellman); series mostly up to 115 µM
Inconclusive results are not listed. Activity calls are given as the source filed them. The call rests on the fitted dose curve.
One label from this list, please: active, inactive

Consider the worked cases shown below.
Oc1ccccc1Br = inactive
O=C(O)c1cc[c]([Hg][Cl])cc1 = inactive
CCOCCOC(C)=O = inactive
COc1cccc2c1C(=O)c1c(O)c3c(c(O)c1C2=O)C[C@@](O)(C(=O)CO)CC3OC1CC(N2CCOC(OC)C2)C(O)C(C)O1 (stereo partly drawn) = active
O=C1c2ccccc2C(=O)C1C(=O)C(c1ccccc1)c1ccc(Cl)cc1 (stereo not drawn) = inactive

Which outcome did this test record for the molecule C[C@@H]1O[C@@H](O[C@@H]2C=C3CC[C@@H]4[C@H](CC[C@]5(C)[C@@H](c6ccc(=O)oc6)CC[C@]45O)[C@@]3(C)CC2)[C@H](O)[C@H](O)[C@H]1O ?
inactive

# iterate: CC(C)(c1ccc(O)c(-c2ccccc2)c1)c1ccc(O)c(-c2ccccc2)c1
inactive

Cool, now ClC(Cl)=C(Cl)Cl
inactive

Would you mind doing Nc1ccc(Cc2ccc(N)c(Cl)c2)cc1Cl as well?
inactive

And what about the molecule Nc1ccc(Cl)cc1C(=O)c1ccccc1 ?
inactive

Now give it for Oc1cccc(-c2ccccc2)c1 too.
inactive
